Recorded values, source paper PMC8011991.

# runDescription: in vitro
# measurementConditions: human, microsomes
For each of the compounds below, state its CLint scaled.
Write down the numeric answer in mL/min/kg and omit the unit.

Ask | Please list CLint scaled recorded for the compound O=C(O)Cc1ccccc1Nc1c(Cl)cccc1Cl
Reply | 84.3

Ask | # return recorded CLint scaled for entry Cc1[nH]c2ccccc2c1CC(=O)N[C@@H](Cc1ccccc1)C(=O)N(C)c1ccccc1 [PF-74, reference compound]
Reply | 972

Ask | // fetch CLint scaled given entry C[C@]12CC[C@H]3[C@@H](CCC4=CC(=O)CC[C@@]43C)[C@@H]1CC[C@@H]2O
Reply | 85.7

Ask | Please look at this compound and report its CLint scaled: COc1ccc(N(C)C(=O)[C@H](Cc2ccccc2)NC(=O)CN2CCN(S(=O)(=O)c3ccc(N)cc3)CC2=O)cc1 [Compound 11l]
Reply | 308
